# System: Nicotinate-nucleotide adenylyltransferase NadD (Staphylococcus aureus N315)
# assay_notes: inhibitors of S. aureus NadD, primary screen, biochemical, colorimetric, uHTS (AID 602399)
# study_conditions: purified NadD enzyme, colorimetric absorbance read-out; at 20 µM; active compounds read high
The whole screen tested about 360,000 compounds, of which about 2,800 (0.78%) were called active. What follows is part of a selection rich in actives, with near analogues and random picks from the rest.
value_kind: inhibition (%)

| molecule | tgt | uom | recorded_result |
| --- | --- | --- | --- |
| Cn1cncc1C#Cc1c(-c2ccsc2)sc2ccccc12 | Nicotinate-nucleotide adenylyltransferase NadD (Staphylococcus aureus N315) | % | 30 |
| Cc1ccc(C(=O)COC(=O)CCN2C(=O)C3C4CCC(C4)C3C2=O)cc1C (stereo not given) | Nicotinate-nucleotide adenylyltransferase NadD (Staphylococcus aureus N315) | % | 4.2 |
| CCCn1c(C(C)Nc2nc(-c3ccc(C)cc3)cs2)nc2cc(Cl)c(N3CCCCC3)cc21 (stereo not given) | Nicotinate-nucleotide adenylyltransferase NadD (Staphylococcus aureus N315) | % | 30.3 |
| COCCNC(=O)/C(C#N)=C/c1cccc(OCc2ccccc2)c1 | Nicotinate-nucleotide adenylyltransferase NadD (Staphylococcus aureus N315) | % | -8.65 |
| CCOC(=O)CC1COCCN1C(=O)c1cc(COc2ccc(F)c(F)c2)on1 (stereo not given) | Nicotinate-nucleotide adenylyltransferase NadD (Staphylococcus aureus N315) | % | -4.39 |
| CCOc1ccc(C(=O)NC2CCN(C(=O)Nc3ccccc3OC)CC2)cc1 | Nicotinate-nucleotide adenylyltransferase NadD (Staphylococcus aureus N315) | % | 2.23 |
| CC(=O)c1cccc(OCc2cc(C(=O)NC(C)Cc3cccnc3)no2)c1 (stereo not given) | Nicotinate-nucleotide adenylyltransferase NadD (Staphylococcus aureus N315) | % | -5.35 |
| COc1cc(Cl)c(C)cc1NC(=O)[C@@H]1CCCN1C(=O)c1cccs1 | Nicotinate-nucleotide adenylyltransferase NadD (Staphylococcus aureus N315) | % | -0.625 |
| COc1ccccc1CCNC(=O)C1CCN(C(=O)/C=C/c2ccccc2)CC1 | Nicotinate-nucleotide adenylyltransferase NadD (Staphylococcus aureus N315) | % | 1.36 |
| Cc1ccc(C2=NN(C(=O)CSc3nc(N)cc(N)n3)C(c3ccco3)C2)cc1 (stereo not given) | Nicotinate-nucleotide adenylyltransferase NadD (Staphylococcus aureus N315) | % | 4.52 |
| COC(=O)[C@@]1(Cc2ccc(OC)cc2)[C@H]2c3cc(C(=O)N4CCCC4)n(Cc4ccc(OC(F)(F)F)cc4)c3C[C@H]2CN1C(=O)c1ccccc1 | Nicotinate-nucleotide adenylyltransferase NadD (Staphylococcus aureus N315) | % | 15.7 |
| O=C(NCCc1cccc(F)c1)C1CC(O)CN1C(=O)Nc1ccccc1 (stereo not given) | Nicotinate-nucleotide adenylyltransferase NadD (Staphylococcus aureus N315) | % | 0.207 |
| COC(=O)c1ccc(COc2ccc(/C=C/C(=O)c3ccc(OC)c(CSCC(=O)O)c3)cc2OC)cc1 | Nicotinate-nucleotide adenylyltransferase NadD (Staphylococcus aureus N315) | % | 20.9 |
| Cc1cc(N2C(=O)C(O)=C(C(=O)c3ccc(C)o3)C2c2ccc(OCc3ccccc3)cc2)no1 (stereo not given) | Nicotinate-nucleotide adenylyltransferase NadD (Staphylococcus aureus N315) | % | 58.6 |
| COc1ccc(CCNC(=O)CN2C(=O)CCSc3ccccc32)c(OC)c1 | Nicotinate-nucleotide adenylyltransferase NadD (Staphylococcus aureus N315) | % | -0.893 |
| CC(=O)N(c1ccc2oc(=O)sc2c1)S(=O)(=O)c1ccc(C)cc1 | Nicotinate-nucleotide adenylyltransferase NadD (Staphylococcus aureus N315) | % | -4.06 |
| Nc1ncnc2c1cnn2C1CC(O)C(CO)O1 (stereo not given) | Nicotinate-nucleotide adenylyltransferase NadD (Staphylococcus aureus N315) | % | 4.49 |
| CN(C)C(=O)Cn1c(=O)n(S(=O)(=O)c2ccccc2)c2ccccc21 | Nicotinate-nucleotide adenylyltransferase NadD (Staphylococcus aureus N315) | % | -0.572 |
| CCOCCCN1C(=O)C2C(C(=O)Nc3ccc(OCC)cc3)C3C=CC2(O3)C1C(=O)NC1CCCCC1 (stereo not given) | Nicotinate-nucleotide adenylyltransferase NadD (Staphylococcus aureus N315) | % | -6.7 |
| Cc1ccc2nc(-c3ccco3)c(Cc3cccc(Cl)c3)n2c1 | Nicotinate-nucleotide adenylyltransferase NadD (Staphylococcus aureus N315) | % | 2.81 |
| O=C(N/N=C/c1ccccn1)c1cccc(NC(=O)c2ccc(Cl)cc2)c1 | Nicotinate-nucleotide adenylyltransferase NadD (Staphylococcus aureus N315) | % | 6.47 |
| CSc1nc(-c2ccco2)nn1C(=O)c1ccccc1Cl | Nicotinate-nucleotide adenylyltransferase NadD (Staphylococcus aureus N315) | % | -4.61 |
| CCCOc1ccc(C2C(C(=O)c3ccc(C)o3)=C(O)C(=O)N2CCCn2ccnc2)cc1 (stereo not given) | Nicotinate-nucleotide adenylyltransferase NadD (Staphylococcus aureus N315) | % | 17.5 |
| CC1(C)C(C=C(Cl)Cl)C1C(=O)NC(O)C(=O)c1ccccc1 (stereo not given) | Nicotinate-nucleotide adenylyltransferase NadD (Staphylococcus aureus N315) | % | -1.25 |
| CCC(NC(=O)c1cc(COc2ccc(F)c(F)c2)on1)c1ccncc1 (stereo not given) | Nicotinate-nucleotide adenylyltransferase NadD (Staphylococcus aureus N315) | % | 48.1 |
| COc1cccc(CN(C)C(=O)CC[C@H]2O[C@@H](n3cnc4c(NC(=O)c5ccccc5)ncnc43)[C@H](O)[C@@H]2O)c1 | Nicotinate-nucleotide adenylyltransferase NadD (Staphylococcus aureus N315) | % | -1.41 |
| O=C1CCC(C(=O)N2CCN(c3ccccc3Cl)CC2)CN1CC1CCCCC1 (stereo not given) | Nicotinate-nucleotide adenylyltransferase NadD (Staphylococcus aureus N315) | % | 5.68 |
| Cc1noc(C)c1S(=O)(=O)N(C)C[C@H]1Oc2ccc(NC(=O)C3CC3)cc2C(=O)N([C@H](C)CO)C[C@@H]1C | Nicotinate-nucleotide adenylyltransferase NadD (Staphylococcus aureus N315) | % | 4.79 |
| O=C(CC(NS(=O)(=O)c1ccc(Cl)cc1)c1ccco1)NC1CCCC1 (stereo not given) | Nicotinate-nucleotide adenylyltransferase NadD (Staphylococcus aureus N315) | % | 1.19 |
| CCOc1ccc2nc(NCCNC(=O)C(C)(C)C)c(C)cc2c1 | Nicotinate-nucleotide adenylyltransferase NadD (Staphylococcus aureus N315) | % | -13.1 |
| COC(=O)CCCC1=CC2=C(c3ccccc3)C(=O)C(C)(OC(=O)C3CCCC3)C(=O)C2=CN1c1ccc(OC)cc1 (stereo not given) | Nicotinate-nucleotide adenylyltransferase NadD (Staphylococcus aureus N315) | % | 6.8 |
| Clc1ccccc1CSc1nnc(-c2ccco2)c(-c2ccco2)n1 | Nicotinate-nucleotide adenylyltransferase NadD (Staphylococcus aureus N315) | % | 29.3 |
| Cc1ccc(-c2csc(N3CCN(c4cc5c(cc4Cl)nc(-c4ccncc4)n5CCOCCO)CC3)n2)cc1 | Nicotinate-nucleotide adenylyltransferase NadD (Staphylococcus aureus N315) | % | -0.493 |
| O=C(N/N=C/c1ccoc1)c1ccc(Cl)cc1Cl | Nicotinate-nucleotide adenylyltransferase NadD (Staphylococcus aureus N315) | % | -0.584 |
| CN(C(=O)CC1C(=O)NCCN1Cc1ccc(F)cc1Cl)C1CCCCC1 (stereo not given) | Nicotinate-nucleotide adenylyltransferase NadD (Staphylococcus aureus N315) | % | 3.03 |
| COc1cccc(C(O)c2nc(-c3ccc(C)c(C)c3)cs2)c1 (stereo not given) | Nicotinate-nucleotide adenylyltransferase NadD (Staphylococcus aureus N315) | % | -4.75 |
| COc1ccc(C(=O)OCC(=O)c2ccc(C)c(S(=O)(=O)N3CCOCC3)c2)cc1OC | Nicotinate-nucleotide adenylyltransferase NadD (Staphylococcus aureus N315) | % | -14 |
| COc1ccc(C2=NN(C(=O)CSc3nc(=O)n4ccc(C)cc4n3)C(c3ccc(C)cc3)C2)cc1 (stereo not given) | Nicotinate-nucleotide adenylyltransferase NadD (Staphylococcus aureus N315) | % | 36.1 |
| C=CCOc1cccc(C2C(C(=O)c3ccc(C)o3)=C(O)C(=O)N2c2nnc(C)s2)c1 (stereo not given) | Nicotinate-nucleotide adenylyltransferase NadD (Staphylococcus aureus N315) | % | 12.2 |
| CCNc1nc(SCCOc2ccccc2)nc(N(C)C)n1 | Nicotinate-nucleotide adenylyltransferase NadD (Staphylococcus aureus N315) | % | -6.51 |
